- assay-notes: Inhibition of Leishmania mexicana CPB delta CTE mutant using Z-Phe-Arg-7-amido-4-methylcoumarin as substrate preincubated for 2 mins followed by substrate addition by fluorimetric assay
Quick list: pKi per entry.
Just the number, please, no unit after it.

Below: 5 compounds and their reported pKi.
-- ask Determine from records and report pKi for "N#CC1(NC(=O)[C@H](Cc2ccccc2)NC(=O)c2ccccc2)CC1"
-- reply 6.8

-- ask Determine from records and report pKi for "N#CCNC(=O)[C@H](Cc1ccccc1)NC(=O)c1cnccn1"
-- reply 6.2

-- ask Determine from records and report pKi for "CC(C)C[C@H](NC(=O)Cc1ccccc1)C(=O)NC1(C#N)CC1"
-- reply 7.2

-- ask Determine from records and report pKi for "CC(C)C[C@H](NC(=O)OC(C)(C)C)C(=O)NC1(C#N)CC1"
-- reply 6.3

-- ask Determine from records and report pKi for "Cn1nc(C(C)(C)C)cc1C(=O)N[C@@H](Cc1ccccc1)C(=O)NCC#N"
-- reply 7.4

Note: attention shifts to another entry.
-- ask Determine from records and report pKi for "N#CCNC(=O)C1(NC(=O)c2ccccc2)CCCC1"
-- reply 4.3

* * *

Quick list: pKi per entry.
- assay-notes: Inhibition of Leishmania mexicana CPB delta CTE mutant using Z-Phe-Arg-7-amido-4-methylcoumarin as substrate preincubated for 2 mins followed by substrate addition by fluorimetric assay
Just the number, please, no unit after it.

-- ask Determine from records and report pKi for "CC[C@@H](C)[C@H](NC(=O)c1ccccc1)C(=O)NC1(C#N)CC1"
-- reply 5.5

-- ask Determine from records and report pKi for "Cn1nc(C(C)(C)C)cc1C(=O)N[C@@H](Cc1ccccc1)C(=O)NC1(C#N)CC1"
-- reply 7.3

-- ask Determine from records and report pKi for "CC(C)C[C@H](NC(=O)c1cc(C(C)(C)C)nn1C)C(=O)N(C)N(C)C#N"
-- reply 9.7

-- ask Determine from records and report pKi for "N#CCNC(=O)[C@@H](Cc1ccccc1)NC(=O)c1ccccc1"
-- reply 5.9

Note: attention shifts to another entry.
-- ask Determine from records and report pKi for "CN(C#N)N(C)C(=O)[C@H](Cc1ccccc1)NC(=O)c1cc(C(C)(C)C)nn1C"
-- reply 9.7

* * *

Listed here: molecules with reported pKi for Procathepsin L (Homo sapiens, UniProt P07711).
pKi is defined as minus the log10 of a concentration measured in mol/L.

-- ask Give pKi; test system Procathepsin L (Homo sapiens, UniProt P07711); molecule "CC[C@@H](C)[C@H](NC(=O)c1ccccc1)C(=O)NC1(C#N)CC1"
-- reply 5.50

-- ask Give pKi; test system Procathepsin L (Homo sapiens, UniProt P07711); molecule "Cn1nc(C(F)(F)F)cc1C(=O)N[C@@H](Cc1ccccc1)C(=O)NCC#N"
-- reply 7.60

-- ask Give pKi; test system Procathepsin L (Homo sapiens, UniProt P07711); molecule "N#CCNC(=O)[C@H](Cc1cccc(Cl)c1)NC(=O)c1ccccc1"
-- reply 7.70

Others:
-- ask Give pKi; test system Procathepsin L (Homo sapiens, UniProt P07711); molecule "CC(C)C[C@H](NC(=O)C(F)(F)c1ccccc1)C(=O)NC1(C#N)CC1"
-- reply 7.50

-- ask Give pKi; test system Procathepsin L (Homo sapiens, UniProt P07711); molecule "N#CCNC(=O)[C@H](Cc1ccccc1)NC(=O)c1cccs1"
-- reply 6.30

-- ask Give pKi; test system Procathepsin L (Homo sapiens, UniProt P07711); molecule "CN(C#N)N(C)C(=O)[C@H](Cc1ccccc1)NC(=O)c1cc(C(C)(C)C)nn1C"
-- reply 9.90

-- ask Give pKi; test system Procathepsin L (Homo sapiens, UniProt P07711); molecule "N#CCNC(=O)[C@H](Cc1ccc(OC(=O)c2ccccc2)cc1)NC(=O)c1ccccc1"
-- reply 6.60

-- ask Give pKi; test system Procathepsin L (Homo sapiens, UniProt P07711); molecule "CC(C)C[C@H](NC(=O)C1(c2ccccc2)CC1)C(=O)NC1(C#N)CC1"
-- reply 8.30

-- ask Give pKi; test system Procathepsin L (Homo sapiens, UniProt P07711); molecule "Cn1nc(C(C)(C)C)cc1C(=O)N[C@@H](Cc1cccc(Cl)c1)C(=O)NCC#N"
-- reply 8.90

-- ask Give pKi; test system Procathepsin L (Homo sapiens, UniProt P07711); molecule "N#CCNC(=O)[C@H](Cc1ccccc1)NC(=O)c1ccccc1"
-- reply 6.90
